Cited source: ChEMBL document CHEMBL4840302

Test Name: Metabolic stability in human liver microsomes assessed as parent compound remaining at 50 uM incubated for 1 hr in the presence of NADPH regenerating system by UV/LC-MS analysis
Assay type: ADME, Microsome
Measurement Conditions: read-out: Stability

- Smiles String: "OCCNc1nc(NCCc2ccccc2)c2cnn(/C=C/c3ccccc3)c2n1"
  remaining at 1 h, 50 µM: "84%"

* * *

System: A2780
Test Name: Cytotoxicity against human A2780 cells assessed as reduction in cell viability measured after 24 hrs by MTT assay
Assay type: functional, cell-based
Measurement Conditions: A2780, 24 h
pIC50: −log10 of the molar value.
Measured Metric: pIC50

- Smiles String: "OCCNc1nc(NCCc2ccccc2)c2cnn(/C=C/c3ccccc3)c2n1"
  Value Reported: 4.59

* * *

Test Name: Stability of the compound in human plasma assessed as half life at 3 mM measured up to 24 hrs by UV/LC-MS analysis
Format: ADME, cell-free

- Smiles String: "C[C@@H](N)C(=O)N[C@@H](Cc1ccccc1)C(=O)N[C@@H](CCCCN)C(=O)OCCNc1nc(NCCc2ccccc2)c2cnn(/C=C/c3ccccc3)c2n1.O=C(O)C(F)(F)F.O=C(O)C(F)(F)F"
  half-life: "0.3 h"
- Smiles String: "C[C@@H](N)C(=O)N[C@@H](Cc1ccccc1)C(=O)N[C@@H](CCCCN)C(=O)NCCCCC(=O)OCCNc1nc(NCCc2ccccc2)c2cnn(/C=C/c3ccccc3)c2n1.O=C(O)C(F)(F)F.O=C(O)C(F)(F)F"
  half-life: "4.6 h"

* * *

Test system: A2780
Test Name: Cytotoxicity against human A2780 cells assessed as reduction in cell viability measured after 72 hrs by MTT assay
Format: functional, cell-based
Measurement Conditions: A2780, 72 h
pIC50: −log10 of the molar value.

- Smiles String: "OCCNc1nc(NCCc2ccccc2)c2cnn(/C=C/c3ccccc3)c2n1"
  pIC50: 5.46
